MEASURED_TARGET: EP4 (Homo sapiens (Human), UniProt P35408)
Sequence (P35408 whole entry): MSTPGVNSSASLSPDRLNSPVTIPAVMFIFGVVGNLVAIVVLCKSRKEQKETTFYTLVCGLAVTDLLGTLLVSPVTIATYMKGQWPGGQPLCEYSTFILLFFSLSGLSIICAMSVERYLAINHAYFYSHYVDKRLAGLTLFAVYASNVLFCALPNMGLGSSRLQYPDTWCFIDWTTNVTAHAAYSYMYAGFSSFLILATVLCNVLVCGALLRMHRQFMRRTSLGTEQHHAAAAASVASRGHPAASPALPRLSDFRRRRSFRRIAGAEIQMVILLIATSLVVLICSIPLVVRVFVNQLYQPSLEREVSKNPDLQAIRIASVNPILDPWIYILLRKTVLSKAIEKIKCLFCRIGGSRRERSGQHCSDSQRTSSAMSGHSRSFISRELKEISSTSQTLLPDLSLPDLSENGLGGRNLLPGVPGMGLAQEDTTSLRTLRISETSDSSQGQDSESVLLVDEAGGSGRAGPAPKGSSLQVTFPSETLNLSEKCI
METHOD_SUMMARY: hEP4 cAMP assay (BT549 breast cancer cells, HTRF cAMP)
Type: cell-based
RECORDED_CONDITIONS: antagonistic activity, PGE2 6 nM
pIC50: −log10 of the molar value.
MEASUREMENT_TYPE: pIC50

Below, 5 compounds whose answers are already recorded.
STRUCTURE_SMILES: O=C(O)c1ccc(-c2cc(NCCc3ccc4sccc4c3)ncn2)cc1OC1CCC1
pIC50: 7.00

STRUCTURE_SMILES: CCCCOc1cc(-c2cc(NCCc3ccc4ccccc4c3C)ncn2)ccc1C(=O)O
pIC50: 6.77

STRUCTURE_SMILES: CCSc1cc(-c2cc(NCCc3cc4c(cc3OC)OCCO4)ncn2)ccc1C(=O)O
pIC50: 7.09

STRUCTURE_SMILES: CCCCOc1cc(-c2cc(NCCc3ccc4ccccc4c3C)ncn2)cc(F)c1C(=O)O
pIC50: 6.84

STRUCTURE_SMILES: CCOc1cc(-c2cc(NCCc3ccc4cc[nH]c4c3)ncn2)sc1C(=O)O
pIC50: 7.82

[P] COc1cc2c(cc1CCNc1cc(-c3ccc(C(=O)O)c(OC4CCC4)c3)ncn1)OCCO2
[Q] C=C(C(=O)O)c1ccc(-c2cc(NCCc3cc4c(cc3OC)OCCO4)ncn2)cc1
Smaller pIC50 value? Options are P and Q Identify your pick by its label.
Q
(Q: 5.84, P: 6.69)

* * *

MEASURED_TARGET: UniProtKB P43116
METHOD_SUMMARY: hEP2 b-arrestin assay (PathHunter HEK 293 PTGER2 b-arrestin cells)
RECORDED_CONDITIONS: antagonistic activity, beta-arrestin assay; read-out: hEP2 b-arr IC50
MEASUREMENT_TYPE: IC50 (nM)

MOLECULE: CCOc1cc(-c2cc(NCCc3cc(F)c4scc(Cl)c4c3)ncn2)ccc1CC(=O)O
MEASURED_TARGET: UniProtKB P43116
DISPLAY_UNIT: nM
IC50: 103
--
MOLECULE: CCc1cc(-c2cc(NCCc3c(OC)cc4c(c3C)OCCO4)ncn2)ccc1CC(=O)O
MEASURED_TARGET: UniProtKB P43116
DISPLAY_UNIT: nM
IC50: 15
--
MOLECULE: CCOc1cc(-c2cc(NCCc3c(C#N)cc4ccccc4c3F)ncn2)ccc1C(=O)O
MEASURED_TARGET: UniProtKB P43116
DISPLAY_UNIT: nM
IC50: 809
--
MOLECULE: CCOc1cc(-c2cc(NCCc3ccc4scc(C#N)c4c3)ncn2)sc1C(=O)O
MEASURED_TARGET: UniProtKB P43116
DISPLAY_UNIT: nM
IC50: 75
--
MOLECULE: CCCc1cc(-c2cc(NCCc3ccc4sccc4c3F)ncn2)ccc1C(C)C(=O)O (racemic)
MEASURED_TARGET: UniProtKB P43116
DISPLAY_UNIT: nM
IC50: 444
--
MOLECULE: Cc1c(CCNc2cc(-c3ccc(C(=O)O)c(CC(C)C)c3)ncn2)ccc2ccccc12
MEASURED_TARGET: UniProtKB P43116
DISPLAY_UNIT: nM
IC50: 360
--
MOLECULE: COc1cc2c(c(C)c1CCNc1cc(-c3ccc(C(=O)O)c(SC)c3)ncn1)OCCO2
MEASURED_TARGET: UniProtKB P43116
DISPLAY_UNIT: nM
IC50: 2
--
MOLECULE: CSc1cc(-c2cc(NCCc3cc(C)c4sccc4c3)ncn2)ccc1C(=O)O
MEASURED_TARGET: UniProtKB P43116
DISPLAY_UNIT: nM
IC50: 316

[1] CC(C)Oc1cc(-c2cc(NCCc3cc(F)c4sccc4c3)ncn2)ccc1C(=O)O
[2] CCOc1cc(-c2cc(NCCc3ccc4ncoc4c3)ncn2)sc1C(=O)O
Pick the one with the larger IC50: 1 vs 2 Identify your pick by its label.
1
(1: 372 nM, 2: 258 nM)

[P] CCOc1cc(-c2cc(NCCc3cc(F)c4sccc4c3)ncn2)ccc1C(=O)NCCO
[Q] CCOc1cc(-c2cc(NCCc3cc4ccsc4cc3C)ncn2)sc1C(=O)O
Smaller IC50 value? Options are P and Q Identify your pick by its label.
Q
(Q: 6 nM, P: 300 nM)

* * *

MEASURED_TARGET: PTGER2 (EP2) (Homo sapiens (Human))
Sequence (P43116 whole entry): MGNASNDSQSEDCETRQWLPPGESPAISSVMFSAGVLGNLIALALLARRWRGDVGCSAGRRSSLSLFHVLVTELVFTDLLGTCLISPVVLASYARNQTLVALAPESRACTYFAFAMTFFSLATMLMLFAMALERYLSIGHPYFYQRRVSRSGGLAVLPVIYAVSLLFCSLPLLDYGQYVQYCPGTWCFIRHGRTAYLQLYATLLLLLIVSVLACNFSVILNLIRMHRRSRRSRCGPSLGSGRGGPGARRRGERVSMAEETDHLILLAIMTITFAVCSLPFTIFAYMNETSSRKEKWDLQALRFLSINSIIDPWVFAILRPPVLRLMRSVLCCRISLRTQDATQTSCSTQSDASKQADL
METHOD_SUMMARY: hEP2 b-arrestin assay (PathHunter HEK 293 PTGER2 b-arrestin cells)
RECORDED_CONDITIONS: antagonistic activity, beta-arrestin assay; read-out: hEP2 b-arr IC50
MEASUREMENT_TYPE: IC50 (nM)

Below, 4 compounds whose answers are already recorded.
STRUCTURE_SMILES: CCOc1cc(-c2cc(NCCc3ccc4ccccc4c3C)ncn2)sc1CCC(=O)O
MEASUREMENT_TYPE: IC50
NUMBER: 195
//
STRUCTURE_SMILES: CCOc1cc(-c2cc(NCCc3ccc4scc(Cl)c4c3)ncn2)ccc1CC(=O)O
MEASUREMENT_TYPE: IC50
NUMBER: 179
//
STRUCTURE_SMILES: CCCc1cc(-c2cc(NCCc3ccc4sccc4c3F)ncn2)ccc1CC(=O)O
MEASUREMENT_TYPE: IC50
NUMBER: 64
//
STRUCTURE_SMILES: CCOc1cc(-c2cc(NCCc3ccc4c(c3)OCC4)ncn2)sc1C(=O)O
MEASUREMENT_TYPE: IC50
NUMBER: 123

[a] CCOc1cc(-c2cc(NCCc3ccc4ccccc4c3C)ncn2)sc1CC(=O)O
[b] CCc1cc(-c2cc(NCCc3cc(F)c4sccc4c3)ncn2)sc1CC(=O)O
[c] CSc1cc(-c2cc(NCCc3ccc4scc(Cl)c4c3)ncn2)ccc1C(=O)O
[d] CCOc1cc(-c2cc(NCCc3c(F)cc4ccccc4c3F)ncn2)sc1C(=O)O
Please rank these compounds by IC50 in descending order. Write the labels out in the order the request specifies.
b, a, d, c

* * *

MEASURED_TARGET: EP4 (Homo sapiens (Human), UniProt P35408)
METHOD_SUMMARY: hEP4 cAMP assay (BT549 breast cancer cells, HTRF cAMP)
Type: cell-based
RECORDED_CONDITIONS: antagonistic activity, PGE2 6 nM
pIC50: −log10 of the molar value.
MEASUREMENT_TYPE: pIC50

COMPOUND: CCOc1cc2sccc2cc1CCNc1cc(-c2ccc(C(=O)O)c(OCC)c2)ncn1
MEASUREMENT_TYPE: pIC50
NUMBER: 7.00

[I] CCc1nc(-c2cc(NCCc3ccc4ccccc4c3C)ncn2)sc1-c1noc(=O)[nH]1
[II] CCOc1cc(-c2cc(NCCc3cc4ccoc4cc3OC)ncn2)ccc1OC(C)C(=O)O (stereo not drawn)
[III] COc1cc2c(cc1CCNc1cc(-c3ccc(C(=O)O)c(SC)c3)ncn1)CCCN2
[IV] CN1CCCc2cc(CCNc3cc(-c4cc(C(F)(F)F)c(C(=O)O)s4)ncn3)c(F)cc21
[V] CCOc1cc(-c2cc(NCCc3ccc4c(c3)OCCO4)ncn2)sc1C(=O)O
Which order do these items take when sorted by rising pIC50? List them. Write the labels out in the order the request specifies.
III, II, I, IV, V
(III: 6.02, II: 6.49, I: 6.96, IV: 7.41, V: 7.68)

[a] O=C(O)c1ccc(-c2cc(NCCc3ccc4ccsc4c3)ncn2)cc1OC1CCC1
[b] CSc1cc(-c2cc(NCCc3ccc4occc4c3)ncn2)ccc1C(=O)O
[c] CCOc1cc(-c2cc(NCCc3ccc4c(c3)CCS4)ncn2)sc1C(=O)O
[d] COc1cc2ccccc2c(F)c1CCNc1cc(-c2ccc(C(=O)O)c(OC3CCC3)c2)ncn1
Which order do these items take when sorted by rising pIC50? List them. Write the labels out in the order the request specifies.
b, a, d, c

[a] Cc1c(CCNc2cc(-c3cc4c(C(=O)O)cccc4[nH]3)ncn2)ccc2ccccc12
[b] Cc1c(CCNc2cc(-c3ccc(C(=O)O)c(CC(C)C)c3)ncn2)ccc2ccccc12
[c] O=C(O)c1ccc(-c2cc(NCCc3ccc4cccc(F)c4c3)ncn2)cc1OC1CCC1
Please rank these compounds by pIC50 in descending order. Write the labels out in the order the request specifies.
b, a, c
(b: 7.38, a: 6.99, c: 6.50)

[I] CCCc1cc(-c2cc(NCCc3ccc4sccc4c3F)ncn2)ccc1CC(=O)O
[II] CCOc1cc(-c2cc(NCCc3ccc4ccccc4c3C)ncn2)ccc1-c1nnn[nH]1
Smaller pIC50 value? Options are I and II Identify your pick by its label.
II

* * *

MEASURED_TARGET: EP4 (Homo sapiens (Human), UniProt P35408)
METHOD_SUMMARY: hEP4 cAMP assay (BT549 breast cancer cells, HTRF cAMP)
Format: cell-based
RECORDED_CONDITIONS: antagonistic activity, PGE2 6 nM
pIC50: −log10 of the molar value.
MEASUREMENT_TYPE: pIC50

Below, 10 compounds whose answers are already recorded.
COMPOUND: CCOc1cc(-c2cc(NCCc3ccc4scc(C#N)c4c3)ncn2)ccc1CC(=O)O [Ex 209]
pIC50: 6.60
--
COMPOUND: COc1cc2occc2cc1CCNc1cc(-c2ccc(C(=O)O)c(OC3CCC3)c2)ncn1 [Ex 100]
pIC50: 7.17
--
COMPOUND: CCOc1cc(-c2cc(NCCc3ccc4occc4c3)ncn2)ccc1CC(=O)O [Ex 311]
pIC50: 6.16
--
COMPOUND: CSc1cc(-c2cc(NCCc3cc(F)c4c(c3)OCCO4)ncn2)ccc1C(=O)O [Ex 216]
pIC50: 6.57
--
COMPOUND: O=C(O)c1ccc(-c2cc(NCCc3c(F)cc4ncccc4c3F)ncn2)cc1OC1CCC1 [Ex 228]
pIC50: 6.52
--
COMPOUND: CCOc1cc(-c2cc(NCCc3ccc4sncc4c3)ncn2)sc1C(=O)O [Ex 135]
pIC50: 6.94
--
COMPOUND: CCOc1cc(-c2cc(NCCc3cc4ccccc4cc3Cl)ncn2)ccc1OCC(=O)O [Ex 247]
pIC50: 6.44
--
COMPOUND: CCOc1cc(-c2cc(NCCc3cc4ccccc4cc3OC(F)F)ncn2)sc1C(=O)O [Ex 45]
pIC50: 7.68
--
COMPOUND: CSc1cc(-c2cc(NCCc3ccc4cccc(F)c4c3)ncn2)ccc1C(=O)O [Ex 243]
pIC50: 6.45
--
COMPOUND: CCOc1cc(-c2cc(NCCc3cc4ccccc4cc3OC(C)C)ncn2)ccc1CC(=O)O [Ex 258]
pIC50: 6.41

[P] CCOc1cc(-c2cc(NCCc3cc4ccccc4cc3OC)ncn2)ccc1OCC(=O)O [Ex 122]
[Q] CCOc1cc(-c2cc(NCCc3cc4ccccc4cc3OC)ncn2)sc1C(=O)O [Ex 9]
[R] COc1cc2ccccc2c(C)c1CCNc1cc(-c2ccc(C(=O)O)c(SC)c2)ncn1 [Ex 59]
[S] CCOc1cc(-c2cc(NCCc3ccc4ccsc4c3)ncn2)ccc1C(=O)O [Ex 167]
[T] COc1cc2cc(F)oc2cc1CCNc1cc(-c2ccc(C(=O)O)c(OC3CCC3)c2)ncn1 [Ex 280]
Which order do these items take when sorted by rising pIC50? List them. Write the labels out in the order the request specifies.
T, S, P, R, Q

[1] CCOc1cc2c(cc1CCNc1cc(-c3ccc(C(=O)O)c(SC)c3)ncn1)OCCO2 [Ex 137]
[2] CSc1cc(-c2cc(NCCc3cc4ccoc4cc3F)ncn2)ccc1C(=O)O [Ex 238]
Pick the one with the larger pIC50: 1 vs 2 Identify your pick by its label.
1
(1: 6.92, 2: 6.46)
